Target: von Willebrand factor (VWF) (Homo sapiens, UniProt P04275 P04275:764-2813)
Assay: filter; Bmax 75%; 2 mM CaCl2, 37 C
Details: tags: factor VIII free, Haematologic Technologies Inc; label: 5'-32P
Property: Kd (nM)
Give the number; nM is assumed, so skip it.

query: Tell me the measured Kd of ACGAACUGCCCUCGAUCGACGCACAGACGUUUUUU (ssRNA, mAmCmGmAmAmCmUmGfCfCfCmUmCmGmAmUmCmGmAfCrGfCmAmCmAmGmAmCmGmUmUmUmUmUmU-idT) [T79 vrt4] , please.
result: 13
